Entries and their measured ΔTm at 500 µM follow.
- Assayed Target: UniProt Q9Y5N5
- Sequence (Q9Y5N5 1-214): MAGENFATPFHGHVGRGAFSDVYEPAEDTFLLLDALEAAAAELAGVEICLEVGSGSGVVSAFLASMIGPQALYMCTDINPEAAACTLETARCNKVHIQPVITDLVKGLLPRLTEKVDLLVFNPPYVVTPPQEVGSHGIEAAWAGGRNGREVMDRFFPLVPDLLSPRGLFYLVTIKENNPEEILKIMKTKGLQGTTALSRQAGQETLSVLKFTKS
- Sequence (Q9UI30 1-120 isoform Q9UI30-2 partner): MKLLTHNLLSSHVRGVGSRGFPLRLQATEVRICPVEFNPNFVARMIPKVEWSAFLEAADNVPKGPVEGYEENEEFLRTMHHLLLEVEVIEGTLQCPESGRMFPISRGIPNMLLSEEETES
- Experiment Notes: KMT9 thermal shift assay (SyproOrange)
- Assay type: binding
- Test Conditions: ΔTm; 500 µM compound, 2 μM KMT9, 5X SO; read-out: Thermal shift
Measurement Type: ΔTm at 500 µM

INSERT INTO measurements (compound_smiles, observed) VALUES
  ('Cn1ccc(-c2cn([C@@H]3C[C@H](CNCCCNCCc4ccccc4)[C@@H](O)[C@H]3O)c3ncnc(N)c23)n1', '15 to 20 °C'),
  ('Nc1ncnc2c1c(Br)cn2[C@@H]1C[C@H](CNCCCNCCc2ccc(F)cc2)[C@@H](O)[C@H]1O', '15 to 20 °C'),
  ('CNc1ncnc2c1ccn2[C@@H]1C[C@H](/C=C/CCNCCc2ccccc2)[C@@H](O)[C@H]1O', '≤ 10 °C');

---

Entries and their measured Kd follow.
- Assayed Target: KMT9 (Homo sapiens, UniProt Q9Y5N5)
- Experiment Notes: Microscale thermophoresis (MST) KMT9 binding
- Test Conditions: His-tag labelled KMT9 20 nM; read-out: MST (Kd)
Measurement Type: Kd

INSERT INTO measurements (compound_smiles, observed) VALUES
  ('C=CCN1CCC([C@H]2C[C@@H](n3cc(-c4nc(Cc5ccccc5)cs4)c4c(N)nc(Cl)nc43)[C@H](O)[C@@H]2O)CC1', '≤ 10 nM'),
  ('Cn1ccc(-c2cn([C@@H]3C[C@H](c4cccc(CN5CCC5)c4)[C@@H](O)[C@H]3O)c3nc(Cl)nc(N)c23)n1', '≤ 10 nM'),
  ('COc1cc(OC)cc([C@H]2C[C@@H](n3cc(Br)c4c(N)nc(Cl)nc43)[C@H](O)[C@@H]2O)c1', '10 to 100 nM');

---

- Assayed Target: KMT9 (Homo sapiens, UniProt Q9Y5N5)
- Sequence (Q9Y5N5 1-214): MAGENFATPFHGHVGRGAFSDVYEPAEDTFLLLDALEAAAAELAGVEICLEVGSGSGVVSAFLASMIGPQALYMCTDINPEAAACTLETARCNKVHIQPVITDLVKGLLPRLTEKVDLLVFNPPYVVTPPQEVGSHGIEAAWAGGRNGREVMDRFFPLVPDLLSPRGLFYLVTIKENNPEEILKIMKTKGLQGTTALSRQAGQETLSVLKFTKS
- Sequence (Q9UI30 1-120 isoform Q9UI30-2 partner): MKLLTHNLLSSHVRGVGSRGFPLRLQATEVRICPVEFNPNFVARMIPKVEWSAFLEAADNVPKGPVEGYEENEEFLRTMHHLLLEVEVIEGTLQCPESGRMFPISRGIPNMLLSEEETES
- Experiment Notes: KMT9 thermal shift assay (SyproOrange)
- Assay type: binding
- Test Conditions: ΔTm class; 500 uM compound, 2 μM KMT9; read-out: Thermal shift
Entries and their measured ΔTm at 500 µM follow.
Measurement Type: ΔTm at 500 µM

INSERT INTO results (compound, measurement_type, observed) VALUES
  ('CN1CCCC([C@H]2C[C@@H](n3cc(-c4nc(Cc5ccccc5)cs4)c4cnc(Cl)nc43)[C@H](O)[C@@H]2O)C1 (stereo partly drawn) [Compound 515]', 'ΔTm at 500 µM', '15 to 20 °C'),
  ('O[C@@H]1[C@@H](CNCCCNCCc2ccc(C(F)(F)F)cc2)C[C@@H](n2cc(-c3cc(Cc4ccccc4)cs3)c3cncnc32)[C@@H]1O [Compound 619]', 'ΔTm at 500 µM', '≤ 10 °C'),
  ('CN1CCC=C([C@H]2C[C@@H](n3cc(-c4nc(Cc5ccccc5)cs4)c4cnc(Cl)nc43)[C@H](O)[C@@H]2O)C1 [Compound 585]', 'ΔTm at 500 µM', '10 to 15 °C');

---

- Assayed Target: UniProt Q9Y5N5
- Experiment Notes: KMT9 methyltransferase inhibition assay, 3H-SAM scintillation (entries 1-154)
- Assay type: biochemical
- Test Conditions: entries 1-154: 3H-SAM assay, 25 nM KMT9, 5 μM ETF1
Measurement Type: IC50

INSERT INTO results (compound, measurement_type, observed) VALUES
  ('COCCn1cc(-c2ccc(CCNCCCNC[C@H]3O[C@@H](n4cnc5c(N)ncnc54)[C@H](O)[C@@H]3O)cc2)nn1 [295 (192)]', 'IC50', '> 10 µM'),
  ('CNc1ncnc2c1ccn2[C@@H]1C[C@H](CNCCCNCCc2cccc(N(C)c3ccccc3)c2)[C@@H](O)[C@H]1O [289 (186)]', 'IC50', '> 10 µM'),
  ('CNc1ncnc2c1ccn2[C@@H]1C[C@H](CNCC2CNCCO2)[C@@H](O)[C@H]1O (mixture of isomers) [435 (307)]', 'IC50', '> 10 µM'),
  ('CCC(C)c1cn([C@@H]2C[C@H](CNCCCNCCc3ccccc3)[C@@H](O)[C@H]2O)c2ncnc(N)c12 (stereo partly shown) [469 (343)]', 'IC50', '1 to 10 µM');

---

- Assayed Target: KMT9 (Homo sapiens)
- Experiment Notes: KMT9 thermal shift assay (SyproOrange)
- Type: binding
- Test Conditions: ΔTm; 500 µM compound, 2 μM KMT9, 5X SO; read-out: Thermal shift
- Experimental: The assay was carried out in 96-well Hard-Shell PCR plates (Bio-Rad Laboratories Inc.). Assay buffer consisted of 50 mM BTP, 1 mM MgCl2 and 1 mM DTT at a pH of 8.5 (adjusted using 1 M HCl and 1 M NaOH). 20X inhibitor stock (in DMSO), 2X enzyme stock and 4X SyproOrange (SO) stock (both in assay buffer) were prepared. 1 μL of 20X compound, 4 μL of assay buffer, 10 μL of 2X KMT9 and 5 μL of 4X SO were pipetted. […] After every step, fluorescence was measured in FRET mode. […]
Entries and their measured ΔTm at 500 µM follow.
Measurement Type: ΔTm at 500 µM

INSERT INTO assay_data (molecule, assayed_target, observed) VALUES
  ('CCN(CCCNCCc1ccc2ccccc2c1)C[C@H]1C[C@@H](n2ccc3c(NC)ncnc32)[C@H](O)[C@@H]1O [375 (279)]', 'KMT9 (Homo sapiens)', '10 to 15 °C'),
  ('CCC(=O)NCCCNC[C@H]1O[C@@H](n2cnc3c(N)ncnc32)[C@H](O)[C@@H]1O [313 (212)]', 'KMT9 (Homo sapiens)', '≤ 10 °C'),
  ('Nc1ncnc2c1ncn2[C@@H]1O[C@H](CNCCCNCc2ccc(OCc3ccccc3)cc2)[C@@H](O)[C@H]1O [321 (224)]', 'KMT9 (Homo sapiens)', '≤ 10 °C'),
  ('CNc1ncnc2c1ccn2[C@@H]1C[C@H](CN(CCCNCCc2cccc(Oc3ccccc3)c2)CC2CC2)[C@@H](O)[C@H]1O [360 (270)]', 'KMT9 (Homo sapiens)', '≤ 10 °C'),
  ('CNc1ncnc2c1ccn2[C@@H]1C[C@H](Cn2ccnc2CCCNCCc2cccc(Oc3ccccc3)c2)[C@@H](O)[C@H]1O [326 (229)]', 'KMT9 (Homo sapiens)', '≤ 10 °C'),
  ('CNc1ncnc2c1ccn2[C@@H]1C[C@H](CN(CCCNCCc2cccc(Oc3ccccc3)c2)C(C)C)[C@@H](O)[C@H]1O [362 (266)]', 'KMT9 (Homo sapiens)', '10 to 15 °C'),
  ('Nc1ncnc2c1c(Br)cn2[C@@H]1C[C@H](CNC[C@@H]2CCCNC2)[C@@H](O)[C@H]1O [456 (328)]', 'KMT9 (Homo sapiens)', '10 to 15 °C'),
  ('O[C@@H]1[C@@H](CN(CCCNCCc2ccccc2)c2cn[nH]c2)C[C@@H](n2cc(-c3cccs3)c3cncnc32)[C@@H]1O [Compound 616]', 'KMT9 (Homo sapiens)', '10 to 15 °C'),
  ('N#Cc1cn([C@@H]2C[C@H](CNCCCNCCc3ccccc3)[C@@H](O)[C@H]2O)c2ncnc(N)c12 [483 (357)]', 'KMT9 (Homo sapiens)', '10 to 15 °C'),
  ('Nc1ncnc2c1ccn2[C@@H]1C[C@H](c2ccncc2)[C@@H](O)[C@H]1O [Compound 389]', 'KMT9 (Homo sapiens)', '≤ 10 °C'),
  ('Nc1ncnc2c1c(-c1ccccc1)cn2[C@@H]1C[C@H](CNCCCNCCc2ccccc2)[C@@H](O)[C@H]1O [466 (340)]', 'KMT9 (Homo sapiens)', '10 to 15 °C'),
  ('C=Cc1cn([C@@H]2C[C@H](CNCCCNCCc3ccccc3)[C@@H](O)[C@H]2O)c2ncnc(N)c12 [464 (338)]', 'KMT9 (Homo sapiens)', '10 to 15 °C'),
  ('O=C1CCc2cn([C@@H]3C[C@H](CNCCCNCCc4ccccc4)[C@@H](O)[C@H]3O)c3ncnc(c23)N1 [Compound 627]', 'KMT9 (Homo sapiens)', '≤ 10 °C'),
  ('CNc1ncnc2c1ccn2[C@@H]1C[C@H](CNCCCNCCc2cccc(Oc3ccccc3)c2)[C@@H](O)[C@H]1O [287 (184)]', 'KMT9 (Homo sapiens)', '10 to 15 °C');

Where these numbers come from: patent US20250188110A1
